Below, each entry is listed alongside its reported fb at [peptide]max (fraction of FITC-PL bound).
- target_system: T1, recombinant PCNA protein (N-terminal (His)6-PCNA) (human, UniProt P12004 1-261)
- T1 construct: PCNA, human; amplified by PCR from a template plasmid (Genecoepia) into pEV-L8, which has an N-terminal (His)6-tag and a TEV protease recognition site; No TEV cleavage is described; also called human PCNA; source: E. coli BL21(DE3), purified (Ni-NTA)
- T1 sequence (P12004 whole entry): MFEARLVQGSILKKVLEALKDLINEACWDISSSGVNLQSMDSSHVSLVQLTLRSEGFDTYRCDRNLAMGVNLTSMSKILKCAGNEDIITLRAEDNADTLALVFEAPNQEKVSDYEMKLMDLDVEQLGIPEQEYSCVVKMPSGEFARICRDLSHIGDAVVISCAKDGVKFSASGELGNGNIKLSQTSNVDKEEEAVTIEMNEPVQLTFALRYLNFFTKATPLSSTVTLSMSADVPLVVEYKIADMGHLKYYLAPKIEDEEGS
- method_description: fluorescence polarisation; competition: increasing unlabeled peptide with 50 nM FITC-PL peptide and 1 µM PCNA (monomer concentration); 25 mM HEPES pH 7.4, 10% glycerol, 0.01% Triton X-100; 30 min at room temperature, read at 30°C; Ki from a modified Cheng-Prusoff equation
- stated_conditions: both partners purified
parameter: fb at [peptide]max (fraction of FITC-PL bound)

>>> endpoint_value("HRFFAGIVWQHV (12-mer modeled after the reverse PIP Box of Akt, found by a screen of the human genome; Synthesised on CLEAR Amide resin, so the C-terminus is probably an amide (surmised); also called Akt peptide; reverse-PIP Box Akt peptide; source: synthetic peptide (solid phase, HPLC purified)) [Akt 12-mer reverse PIP Box peptide mimic]")
0.06
>>> endpoint_value("SAVLQKKITDYFHPKK (Synthesised on CLEAR Amide resin, so the C-terminus is probably an amide (surmised); also called control PL peptide; source: synthetic peptide (solid phase, HPLC purified)) [unlabeled POGO-ligase (PL) peptide]")
0
>>> endpoint_value("NRQVSITGFFQR (12-mer modeled after the PIP Box of the p66 subunit of DNA polymerase δ; Synthesised on CLEAR Amide resin, so the C-terminus is probably an amide (surmised); also called p66 peptide; source: synthetic peptide (solid phase, HPLC purified)) [DNA polymerase δ (p66 subunit) 12-mer PIP Box peptide mimic]")
0
>>> endpoint_value("PGQRSISLRYEG (Synthesised on CLEAR Amide resin, so the C-terminus is probably an amide (surmised); also called Abl peptide; source: synthetic peptide (solid phase, HPLC purified)) [Abl 12-mer PIP Box peptide mimic]")
0.1
>>> endpoint_value("TLQYLLKHFFKL (12-mer modeled after the PIP Box of PI3-kinase p85α, found by a screen of the human genome; Synthesised on CLEAR Amide resin, so the C-terminus is probably an amide (surmised); also called p85α peptide; PI3-kinase (p85α regulatory domain); source: synthetic peptide (solid phase, HPLC purified)) [PI3K (p85α subunit) 12-mer PIP Box peptide mimic]")
0
>>> endpoint_value("RRQTSMTDFYHS (12-mer modeled after the C-terminal PIP Box of the tumor suppressor p21; Synthesised on CLEAR Amide resin, so the C-terminus is probably an amide (surmised); also called p21 peptide; p21 12-amino acid peptide; source: synthetic peptide (solid phase, HPLC purified)) [p21 12-mer PIP Box peptide mimic]")
0.25
